# ASSAY REMARKS: Stability assay in 25% TIDE 2X detergent with DTPA (residual Abz-AGLA-Nba protease activity)
# Assay type: physicochemical
# TEST SETTINGS: 60 min at 32°C; variant residual AGLA activity divided by wild-type residual activity
Exercise: state measured PI (relative stability), 25% TIDE 2X with DTPA for each of the molecules provided.
Answers are plain numbers.

S065E: single-substitution thermolysin variant (SEQ ID NO:3 numbering) (protein, listed as Geobacillus caldoproteolyticus) ITGTSTVGVGRGVLGDQKNINTTYSTYYYLQDNTRGNGIFTYDAKYRTTLPGSLWADADNQFFAEYDAPAVDAHYYAGVTYDYYKNVHNRLSYDGNNAAIRSSVHYSQGYNNAFWNGSQMVYGDGDGQTFIPLSGGIDVVAHELTHAVTDYTAGLIYQNESGAINEAISDIFGTLVEFYANKNPDWEIGEDVYTPGISGDSLRSMSDPAKYGDPDHYSKRYTGTQDNGGVHINSGIINKAAYLISQGGTHYGVSVVGIGRDKLGKIFYRALTQYLTPTSNFSQLRAAAVQSATDLYGSTSQEVASVKQAFDAVGVK	1.08

Need PI (relative stability), 25% TIDE 2X with DTPA, item N280M: single-substitution thermolysin variant (SEQ ID NO:3 numbering) (protein, listed as Geobacillus caldoproteolyticus) ITGTSTVGVGRGVLGDQKNINTTYSTYYYLQDNTRGNGIFTYDAKYRTTLPGSLWADADNQFFASYDAPAVDAHYYAGVTYDYYKNVHNRLSYDGNNAAIRSSVHYSQGYNNAFWNGSQMVYGDGDGQTFIPLSGGIDVVAHELTHAVTDYTAGLIYQNESGAINEAISDIFGTLVEFYANKNPDWEIGEDVYTPGISGDSLRSMSDPAKYGDPDHYSKRYTGTQDNGGVHINSGIINKAAYLISQGGTHYGVSVVGIGRDKLGKIFYRALTQYLTPTSMFSQLRAAAVQSATDLYGSTSQEVASVKQAFDAVGVK 1.16
